Molecular target: RELB subunit;p50 subunit (Homo sapiens;Homo sapiens, UniProt Q01201;P19838 120-401;7-356)
Sequence (Q01201 120-401, chain 1 of 2): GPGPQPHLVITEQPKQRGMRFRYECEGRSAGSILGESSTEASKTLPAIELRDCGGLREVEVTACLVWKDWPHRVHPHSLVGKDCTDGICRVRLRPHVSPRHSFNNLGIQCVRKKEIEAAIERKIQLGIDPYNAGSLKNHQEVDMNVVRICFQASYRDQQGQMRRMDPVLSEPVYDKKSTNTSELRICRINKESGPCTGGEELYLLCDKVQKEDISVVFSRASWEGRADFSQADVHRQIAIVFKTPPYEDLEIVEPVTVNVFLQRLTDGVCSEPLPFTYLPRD
Sequence (P19838 7-356, chain 2 of 2): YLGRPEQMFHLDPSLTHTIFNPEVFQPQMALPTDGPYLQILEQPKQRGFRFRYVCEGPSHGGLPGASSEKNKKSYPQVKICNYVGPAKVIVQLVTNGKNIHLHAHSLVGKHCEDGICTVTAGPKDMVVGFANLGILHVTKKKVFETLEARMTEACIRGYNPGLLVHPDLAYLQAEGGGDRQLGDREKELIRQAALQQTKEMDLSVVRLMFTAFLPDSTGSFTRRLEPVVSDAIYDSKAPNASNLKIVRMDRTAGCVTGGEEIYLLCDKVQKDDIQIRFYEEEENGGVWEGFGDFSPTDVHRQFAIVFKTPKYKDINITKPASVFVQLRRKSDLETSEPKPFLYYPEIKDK
Experiment: protein binding microarray; high values mean tight binding
Conditions: dsDNA, one strand shown
Observed property: binding signal (z-score)
Kindly answer with a numeric value in z-score, unit omitted.

INPUT: Please give the measured binding signal for this sequence: CGGGTTATCCC
OUTPUT: 0.155

INPUT: Which binding signal reading was recorded for the sequence GGAGAACCCCC ?
OUTPUT: 1.42

INPUT: binding signal for CAGTTGACCCT ?
OUTPUT: -0.526

INPUT: Which measured binding signal value corresponds to GAGGTTCTCCC ?
OUTPUT: 0.333

INPUT: Fill blank: measured binding signal of the sequence GGATGCGTCCT is ____.
OUTPUT: -1.18

INPUT: Field request: binding signal | item: GGATGAACCCT
OUTPUT: -0.936

INPUT: Recorded binding signal for AAGAAGGTCCT , please?
OUTPUT: -0.786

INPUT: Please report the recorded binding signal for GAGGAAATCCT .
OUTPUT: -0.858

INPUT: # binding signal lookup, item AGGTGTCCCCC
OUTPUT: 1.21

INPUT: May I ask what binding signal has been recorded for AAGAGAGCCCC ?
OUTPUT: -0.0342

INPUT: Form field: reported binding signal of GAGAGGGTCCC
OUTPUT: -0.0754

INPUT: Which binding signal is listed for CAGTTCTTCCC ?
OUTPUT: -0.231

INPUT: Name the recorded binding signal for CAGGGCTCCCT .
OUTPUT: -0.43

INPUT: Need binding signal, item GAGATCCTCCC
OUTPUT: -0.422

INPUT: Which binding signal is listed for AGATATTCCCC ?
OUTPUT: 1.8

INPUT: Request the reported binding signal associated with AGAGGAGCCCC
OUTPUT: 0.0681

INPUT: I have this sequence here, AGAAAATCCCT , and I need its recorded binding signal.
OUTPUT: 1.49

INPUT: Please look up its binding signal: AAATATCTCCC
OUTPUT: 0.365

INPUT: What value of binding signal has been reported for the following sequence? CAGGGGATCCC
OUTPUT: 1.12

INPUT: Recorded binding signal for GGGGTGATCCC , please?
OUTPUT: 0.387

INPUT: # get_value(readout='binding signal', item= CGAAATCCCCC )
OUTPUT: 2.58

INPUT: Suppose we examine the sequence AGGTGTGCCCT ; what binding signal value has been reported?
OUTPUT: -0.956

INPUT: Dear colleague, I am looking for the recorded binding signal of the following sequence: GAGAGTTCCCC
OUTPUT: 1.7

INPUT: What value of binding signal has been reported for the following sequence? CGGAGGTTCCC
OUTPUT: -0.291

INPUT: // query binding signal value for entry CAAGGTATCCC
OUTPUT: -0.488

INPUT: Please report the recorded binding signal for CGGGAAGCCCT .
OUTPUT: -0.513

INPUT: Sample CGGGGCATCCT — what was its binding signal?
OUTPUT: 0.179

INPUT: Which binding signal value is on record for AGGTTACCCCT ?
OUTPUT: 0.84

INPUT: State the recorded binding signal for this entry: GAAGTTGTCCT
OUTPUT: -0.826

INPUT: Entry CAATTATCCCC has what binding signal?
OUTPUT: 1.3

INPUT: For the sequence CGAAAGATCCC , what binding signal is on record?
OUTPUT: 0.0265

INPUT: binding signal for AAATACACCCC ?
OUTPUT: 0.209

INPUT: What value of binding signal has been reported for the following sequence? GGAGACTTCCC
OUTPUT: -0.132

INPUT: Item GAAGAATCCCC has what recorded binding signal?
OUTPUT: 2.29

INPUT: Would you mind telling me what binding signal value was observed for CAGAGTGTCCC ?
OUTPUT: 0.304

INPUT: What does the record list as binding signal for CGAGAGCCCCT ?
OUTPUT: 0.502

INPUT: Request the reported binding signal associated with CGAGTTCTCCC
OUTPUT: 0.367

INPUT: Any idea what binding signal was measured for CGGGGGGTCCC ?
OUTPUT: 1.28

INPUT: Query: binding signal; subject: AAGGTCACCCT
OUTPUT: -0.645

INPUT: Consider the sequence shown here: GAATGAGCCCT What is its recorded binding signal?
OUTPUT: -1.17

INPUT: Give the measured binding signal of AGGTGACTCCT .
OUTPUT: -0.778

INPUT: Value lookup for binding signal; key = CGGGAACCCCC
OUTPUT: 1.67

INPUT: Recorded binding signal of AGATGAACCCC , please.
OUTPUT: -0.255

INPUT: Quick check: binding signal of GAAATCCTCCT ?
OUTPUT: -0.979

INPUT: Which value of binding signal has been reported for GAGGAGGCCCT in the records?
OUTPUT: -0.68

INPUT: Item under review: CGGTGCCTCCT . Reported binding signal?
OUTPUT: -0.763

INPUT: Endpoint output: binding signal of CGAATTCTCCT . Value?
OUTPUT: -0.948

INPUT: Name the reported binding signal value associated with the sequence AAAAGCCTCCT
OUTPUT: -1.23

INPUT: Item under review: CGGGGTTCCCC . Reported binding signal?
OUTPUT: 1.93

INPUT: Sample AAATTGGCCCC — what was its binding signal?
OUTPUT: 0.375

INPUT: Reported binding signal, sequence CGGGTATCCCC : ____
OUTPUT: 0.893

INPUT: Which binding signal is listed for GAGAAAACCCT ?
OUTPUT: 0.0283

INPUT: Reported binding signal for CAGTAAATCCT : what is it?
OUTPUT: -0.822

INPUT: Item under review: GGAAGTATCCT . Reported binding signal?
OUTPUT: -1.12

INPUT: # get_value(readout='binding signal', item= GGGATCGTCCT )
OUTPUT: -0.598

INPUT: What does the data say about its binding signal? Entry: AAGTTTCTCCC
OUTPUT: 0.576

INPUT: Can you share its binding signal? I mean this sequence: CAAGGTACCCT
OUTPUT: -0.0446

INPUT: I am curious: what binding signal value has been reported for GGAGTTTTCCT ?
OUTPUT: -0.676

INPUT: For the sequence shown here, GGATAGACCCC , give the reported binding signal.
OUTPUT: -0.398

INPUT: Any idea what binding signal was measured for CGAGGCACCCT ?
OUTPUT: -0.726

INPUT: Find the recorded binding signal belonging to AGATACATCCC and report it.
OUTPUT: -0.73

INPUT: I have this sequence here, AGAATCCCCCC , and I need its recorded binding signal.
OUTPUT: 2.64

INPUT: Query (sequence): CAAAGGGTCCC ; field requested: binding signal
OUTPUT: 0.0439

INPUT: Requested field: binding signal. Item: GGAATTACCCC
OUTPUT: 1.18

INPUT: Form field: reported binding signal of CGGTAAACCCT
OUTPUT: -0.151

INPUT: # get_value(readout='binding signal', item= GAATGGCCCCT )
OUTPUT: 0.27

INPUT: Record request: binding signal value, item CAGTTTATCCC
OUTPUT: -0.213

INPUT: Which binding signal is reported for this sequence? CAGGTACCCCT
OUTPUT: 0.548

INPUT: Would you kindly share the measured binding signal for CGATTAATCCC ?
OUTPUT: 0.0473

INPUT: Consider the sequence shown here: GGGTAACCCCT What is its recorded binding signal?
OUTPUT: 0.672

INPUT: Could you tell me which binding signal is on file for AGATTGACCCT ?
OUTPUT: -0.635

INPUT: Value lookup for binding signal; key = GGATTGTTCCC
OUTPUT: -0.257

INPUT: What binding signal value was documented for this sequence, GGGTTACTCCC ?
OUTPUT: 0.354

INPUT: Param item = GGGAAGCTCCC ; retrieve measured binding signal.
OUTPUT: 0.839

INPUT: Param item = GAAGTGCTCCT ; retrieve measured binding signal.
OUTPUT: -1.33

INPUT: Return reported binding signal; argument: CGGATAATCCT
OUTPUT: -1.02

INPUT: Entry CGAGAATCCCT has what binding signal?
OUTPUT: 0.305

INPUT: Give the measured binding signal of CAAGGTTCCCC .
OUTPUT: 1.5

INPUT: Report binding signal for CAGGTTACCCC please.
OUTPUT: 0.443

INPUT: What value of binding signal has been recorded for this entry: CAATGTTCCCT
OUTPUT: 0.0726

The reported measurements were obtained from paper PMC3218832.
